# Tested on: HS 578T breast
# protocol-details: NCI tumour cell line growth inhibition, 48 h
Entries and their TGI values follow.
Numeric answer only, unit µM assumed.

Worked cases, answers included:
Cc1ccc(/C=C/c2c(C(=O)/C=C/c3ccc(C(F)(F)F)cc3)c(C)nc3ccccc23)cc1 ... 4.63
Nc1c(C(=O)Nc2cccc(Br)c2)sc2nc3c(cc12)C(=O)CCC3 ... 83.5

We next turn to a different compound, shown below.
Given O=C(NC(CO)Cc1ccc(Oc2cc(CC(CO)NC(=O)OCc3ccccc3)ccc2OC(=O)OCc2ccccc2)cc1)OCc1ccccc1 (centres undefined) , state its recorded TGI. 28.4

----------
Entries and their GI50 values follow.
# Test system: 786-0 renal
# protocol-details: NCI tumour cell line growth inhibition, 48 h

Worked cases, answers included:
C=CCCCCCCCCCCC1(O)C=CC2=[N+](CCCCCN=C(N)N)CCCN21 (stereo not given) ... 7.47 µM
COc1cccc(/C=N/[N-]C(=O)c2ccncc2)c1[O-].[Cu+2].[OH3+] ... 63.4 µM
Cc1cn2c(/C=C3\C(=O)Nc4ccc(O)cc43)c(-c3ccc(Cl)cc3)nc2s1 ... 16.6 µM

Given COc1cc(C2c3cc4c(cc3C(O)C(CO)C2CO)OCO4)cc(OC)c1OC (stereo not given) , state its recorded GI50. 6.59 µM

Given `Cc1ccc(/C=C/c2c(C(=O)/C=C/c3ccc(C(F)(F)F)cc3)c(C)nc3ccccc23)cc1` , state its recorded GI50. 1.7 µM

----------
# Tested on: SF-268 CNS
# protocol-details: NCI tumour cell line growth inhibition, 48 h
Entries and their TGI values follow.

Worked cases, answers included:
COc1ccc2[nH]cc(-c3nc(-c4c[nH]c5ncccc45)cs3)c2c1 ... > 100 µM
CCCn1c(N)c(C(=O)N/N=C(/C)c2cc3cccc(OC)c3o2)sc1=S ... > 100 µM
CC1(C)OCCn2c1nc1c(N3CCOCC3)nc(-c3cnc(N)nc3)nc12 ... > 100 µM

Given CN1CCN(CN2C(=O)C3C4C=CC(C3C2=O)C2C(=O)N(CN3CCN(C)CC3)C(=O)C42)CC1 (stereo not drawn) , state its recorded TGI. > 100 µM

Given CC1(C)OC2C(O)CN3CCS[C@H]3C2O1 (stereo partly drawn) , state its recorded TGI. > 100 µM

Given `CCN(CC)c1nc(-c2ccc(Cl)cc2Cl)nc2ccccc12` , state its recorded TGI. > 68.8 µM

Given `CS(=O)(=O)CCCn1c(=O)c(Oc2ccc(F)cc2F)cc2cnc(NC3CCOCC3)nc21` , state its recorded TGI. > 25 µM

Given `Cn1cnc([N+](=O)[O-])c1S(=O)(=O)Oc1ccccc1` , state its recorded TGI. 48.2 µM

Given `O=[N+]([O-])c1ccc(S(=O)(=O)N=Ic2ccccc2)cc1` , state its recorded TGI. > 100 µM

Given CC(C)(C)NC(=O)N1N=C(c2ccccc2)C1c1ccccc1 (stereo not drawn) , state its recorded TGI. > 100 µM

Given `O=C(c1ccc(Cl)cc1)c1cnc(Nc2ccccc2Cl)s1` , state its recorded TGI. 57.6 µM

Given `COC(=O)C1(OC(=O)Sc2ccccc2)CCN(C)CC1` , state its recorded TGI. 62 µM

Given `O=C(NC(=O)c1cn(CCNCCO)c(=O)[nH]c1=O)OCc1ccccc1` , state its recorded TGI. > 100 µM

Given `COc1cc(CNCCCN2C(=O)c3ccc4c5c(ccc(c35)C2=O)C(=O)N(CCCNCc2cc(OC)c(OC)c(OC)c2)C4=O)cc(OC)c1OC` , state its recorded TGI. 2.27 µM

Given O=S(Cc1ccccn1)c1nc2ccccc2nc1-c1ccccc1 (stereo not drawn) , state its recorded TGI. > 100 µM

Given `NS(=O)(=O)c1ccc(N(/C=C/C(=O)C(F)(F)F)CC(=O)c2ccc(Cl)cc2)cc1` , state its recorded TGI. > 100 µM

Given `CCOP(=O)(O)C(C)(C)NC` , state its recorded TGI. > 100 µM

Given `COc1cc(-c2nn(-c3cccc(NC(=O)Nc4ccc(Cl)c(Cl)c4)c3)cc2-c2ccncc2)ccc1Cl` , state its recorded TGI. 20.3 µM

Given `CCOc1ccc2c(c1)[n+]([O-])c(-c1ccccc1Cl)c(N)[n+]2[O-]` , state its recorded TGI. > 100 µM

Given COc1cc(C2c3cc4c(cc3C(O)C(CO)C2CO)OCO4)cc(OC)c1OC (stereo not drawn) , state its recorded TGI. > 100 µM

Given CCCCn1c(C)c2c(c1C)C(=O)N(CC(O)CN1CCc3ccccc3C1)C2=O (stereo not drawn) , state its recorded TGI. > 100 µM

----------
# System: SF-295 CNS
# protocol-details: NCI tumour cell line growth inhibition, 48 h
Entries and their GI50 values follow.

Worked cases, answers included:
Cn1cc(C2=C(c3cn(C)c4cc(C(N)=O)ccc34)C(=O)NC2=O)c2ccccc21 ... 0.987 µM
CCCCCCC[CH2][Sn]1([CH2]CCCCCCC)[O]C(=O)c2cccnc2[S]1 ... > 100 µM
N=c1ccn2c(n1)OC1C(O)C(CO)OC12 (centres undefined) ... 5.93 µM

We next turn to a different compound, shown below.
Which measured GI50 belongs to C=CCCCCCCCCCCC1(O)C=CC2=[N+](CCCCCN=C(N)N)CCCN21 (centres undefined) , tested on SF-295 CNS? 7.2 µM

----------
Entries and their TGI values follow.
# Test system: PC-3 prostate
# protocol-details: NCI tumour cell line growth inhibition, 48 h

Worked cases, answers included:
Nc1nc2c(ncn2Cc2ccc(CO)cc2)c(=O)[nH]1 ... > 100 µM
O=S(=O)(O)c1ccc(N=Nc2ccc(N=Nc3c(O)ccc4ccccc34)cc2)cc1 ... > 100 µM
COc1ccc(N2C(=O)CS(=O)(=O)C2c2cccc(Oc3ccccc3)c2)cc1 (centres undefined) ... 51.9 µM

We next turn to a different compound, shown below.
Given `Cc1ccc(C(=O)N/N=C(\N=Nc2ccccc2[N+](=O)[O-])c2ccc(N(C)C)cc2)cc1` , state its recorded TGI. > 100 µM

----------
# Test system: DU-145 prostate
# protocol-details: NCI tumour cell line growth inhibition, 48 h
assay-metric: TGI (µM)
Numeric answer only, unit µM assumed.

Worked cases, answers included:
Cc1ccc(/C=C/c2c(C(=O)/C=C/c3ccc(C(F)(F)F)cc3)c(C)nc3ccccc23)cc1 ... 2.9
CC(C)(C)c1cc(C(=O)/C=C/C=C/c2ccccc2)cc(C(C)(C)C)c1O ... 98.1
Cc1csc(Nc2nc(-c3cccc(Br)c3)nc(C(Cl)(Cl)Cl)n2)n1 ... 3.21
CC1(C)OC(=C(C#N)C#N)C(C#N)=C1/C=C/c1ccncc1 ... 6.21
CCCCCCNC(=O)c1nc(-c2ccccc2)oc1Cc1ccc(OP(=O)(O)O)cc1 ... 22.3
O=C(NCCCN(CCCCN(CCCNC(=O)C(F)(F)F)CCCc1ccccc1)CCCc1ccccc1)C(F)(F)F ... 3.99
CC(/C=N\NC(=S)N1CCCCC1)=N/NC(=S)N1CCCCC1 ... 4.58
COC12C=C/C(=C(/C(=O)OCc3ccncc3)C(=O)CCCCCCCCC3(OC)C=C/C(=C(/C(=O)OCc4ccncc4)C(=O)CCCCCCCC1)O3)O2 ... 2.29
CCN1CCN=c2c3cc(OC)ccc3n3cnc4ccc1c2c43 ... 2.73

We next turn to a different compound, shown below.
Given `Nc1nccc2c1ccn2-c1ccc(NC(=O)c2ccc(N3CCOCC3)c(C(F)(F)F)c2)cc1` , state its recorded TGI. 20.5

----------
# System: HT29 colon
# protocol-details: NCI tumour cell line growth inhibition, 48 h; in the data active means GI50 below about 0.43 µM; inactive means the rest
Classes to choose from: 1 for active, -1 for inactive

O=c1[nH]c(=O)n(C2CC(O)C(CO)O2)cc1CO (configuration not stated) ... -1
COC12C=C/C(=C(/C(=O)OCc3ccncc3)C(=O)CCCCCCCCC3(OC)C=C/C(=C(/C(=O)OCc4ccncc4)C(=O)CCCCCCCC1)O3)O2 ... -1
C[C@H]1Oc2cc(cnc2N)-c2c(nn(C)c2C#N)CN(C)C(=O)c2ccc(F)cc21 ... -1
CC(C)=CCc1cc(O)cc2c1OC(C=C(C)C)C1=C2C(=O)C2=C(NCCS2(=O)=O)C1=O (configuration not stated) ... -1
CCCn1c(N)c(C(=O)N/N=C(/C)c2cc3cccc(OC)c3o2)sc1=S ... -1

Let's switch to this compound now.
In this assay, the call recorded for `CS(=O)(=O)CCCn1c(=O)c(Oc2ccc(F)cc2F)cc2cnc(NC3CCOCC3)nc21` was what? -1

----------
Entries and their TGI values follow.
# System: UACC-257 melanoma
# protocol-details: NCI tumour cell line growth inhibition, 48 h
Numeric answer only, unit µM assumed.

CC(C)(C)c1cc(C(=O)/C=C/C=C/c2ccccc2)cc(C(C)(C)C)c1O ... 25.4
COc1ccc(C(=O)/C=C/c2ccncc2)cc1OC ... 25.5
Cc1ccc(Cn2c(C)nc3c2C(=O)c2ccccc2C3=O)cc1 ... 60.8

We next turn to a different molecule, shown below.
Given `O=C(c1ccc(Cl)cc1)c1cnc(Nc2ccccc2Cl)s1` , state its recorded TGI. 47.2
